Data provenance: paper PMC10397247

Assayed Target: T1, 4H2839-bA
T1 chain: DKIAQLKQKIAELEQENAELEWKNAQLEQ
Assay Name: two-hybrid library CCNG1;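 also: natural log of median RNA to DNA barcode read ratio; higher means stronger binding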
Measured Parameter: interaction score

Binder: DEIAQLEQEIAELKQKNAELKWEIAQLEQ [4H121-bA]
interaction score: 0.693
//
Binder: DKIAQLKQEIAELEQENAELKWENAQLKQ [4H2588-bA]
interaction score: 0.846
//
Binder: DKIAQLEQKNAELEQKIAELKWEIAQLEQ [4H2473-bA]
interaction score: -0.648

P. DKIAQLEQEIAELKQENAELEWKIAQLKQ [4H2134-bA]
Q. DKIAQLEQKNAELEQEIAELEWKIAQLKQ [4H2438-bA]
R. DKIAQLKQENAELEQEIAELEWENAQLKQ [4H2692-bA]
S. DKIAQLKQKIAELEQENAELEWKNAQLEQ [4H2839-bA]
Enquiry: Arrange the 4 entries by interaction score so the values rise. A ranking is expressed here by listing the labels in the requested order.
Return: R, S, Q, P
